Target or test system: 3-ketoacyl-CoA synthase 17 (Arabidopsis thaliana)
Sequence (whole entry): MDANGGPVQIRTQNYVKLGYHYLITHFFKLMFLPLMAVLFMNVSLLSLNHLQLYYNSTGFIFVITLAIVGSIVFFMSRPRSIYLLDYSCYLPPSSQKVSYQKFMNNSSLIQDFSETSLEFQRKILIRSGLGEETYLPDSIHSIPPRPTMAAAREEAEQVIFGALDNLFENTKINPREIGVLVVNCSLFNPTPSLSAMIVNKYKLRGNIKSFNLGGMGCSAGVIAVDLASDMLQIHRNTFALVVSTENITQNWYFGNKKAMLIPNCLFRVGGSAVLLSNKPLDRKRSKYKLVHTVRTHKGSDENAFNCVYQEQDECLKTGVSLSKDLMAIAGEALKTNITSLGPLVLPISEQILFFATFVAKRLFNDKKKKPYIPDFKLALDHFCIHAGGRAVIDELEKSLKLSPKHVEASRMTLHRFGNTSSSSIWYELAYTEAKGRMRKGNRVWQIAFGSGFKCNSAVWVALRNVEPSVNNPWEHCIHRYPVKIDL
Assay overview: Inhibition of Arbidopsis thaliana C-terminal His-tagged KCS2 expressed in Saccharomyces cerevisiae INVSc1 at 100 uM after 18 to 20 hr by GC/MS analysis
Activity calls are given as the source filed them. No cut-off for these calls is given here.
// allowed return values: active, inactive

Dear all, I need the recorded test outcome for CCN(CC)C(=O)n1cnc(S(=O)(=O)c2c(C)cc(C)cc2C)n1 [CAFENSTROLE] , thank you.
active

Call for entry CCc1cccc(CC)c1N(COC)C(=O)CCl [ALACHLOR] :
active

Please state the recorded outcome for this compound: CCN(C(=O)n1nnn(-c2ccccc2Cl)c1=O)C1CCCCC1 [FENTRAZAMIDE]
active

Assay result, entry CC(C)N(C(=O)COc1nnc(C(F)(F)F)s1)c1ccc(F)cc1 [FLUFENACET] — outcome?
active

For CCS(=O)(=O)Oc1ccc2c(c1)C(C)(C)CO2 [BENFURESATE] , what call appears in the results of this test?
inactive

Look up the recorded call for CCN(CC)C(=O)C(C)Oc1cccc2ccccc12 (centres undefined) [NAPROPAMIDE] in this test.
inactive

# fetch the recorded call for CCOC1Oc2ccc(OS(C)(=O)=O)cc2C1(C)C (centres undefined) [ETHOFUMESATE] here
inactive

GET /call?item= CC(C)N(C(=O)SCC(Cl)=C(Cl)Cl)C(C)C [TRIALLATE] returns the recorded outcome of this test.
inactive

Hi, sorry to bother you, what did the test record for CN(C)C(=O)C(c1ccccc1)c1ccccc1 [DIPHENAMIDE] ?
inactive

###

Target or test system: 3-ketoacyl-CoA synthase 18 (Arabidopsis thaliana)
Sequence (whole entry): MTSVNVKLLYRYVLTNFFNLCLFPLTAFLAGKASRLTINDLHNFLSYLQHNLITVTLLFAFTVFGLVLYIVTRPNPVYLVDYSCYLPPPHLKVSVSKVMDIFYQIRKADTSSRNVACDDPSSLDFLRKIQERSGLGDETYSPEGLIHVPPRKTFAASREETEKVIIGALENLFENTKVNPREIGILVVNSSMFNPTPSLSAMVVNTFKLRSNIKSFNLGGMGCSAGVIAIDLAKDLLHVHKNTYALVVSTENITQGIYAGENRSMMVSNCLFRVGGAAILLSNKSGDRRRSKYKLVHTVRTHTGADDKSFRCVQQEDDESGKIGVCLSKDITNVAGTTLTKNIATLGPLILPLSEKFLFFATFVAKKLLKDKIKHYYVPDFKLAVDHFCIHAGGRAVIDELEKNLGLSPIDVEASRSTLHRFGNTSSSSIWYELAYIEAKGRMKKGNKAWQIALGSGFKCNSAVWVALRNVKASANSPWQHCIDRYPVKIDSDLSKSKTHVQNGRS
Assay overview: Inhibition of Arbidopsis thaliana C-terminal His-tagged FAE1 expressed in Saccharomyces cerevisiae INVSc1 at 100 uM after 18 to 20 hr by GC/MS analysis
The source made the active and inactive calls. No cut-off for these calls is given here.
Your response should consist of one outcome taken from 1 (yes) (active), 0 (no) (inactive)

Tell me the recorded outcome of this test for CN(C)C(=O)C(c1ccccc1)c1ccccc1 [DIPHENAMIDE] .
0 (no)

// return assay outcome for CC(C)N(C(=O)SCC(Cl)=C(Cl)Cl)C(C)C [TRIALLATE]
0 (no)

Status in this test for CCOC1Oc2ccc(OS(C)(=O)=O)cc2C1(C)C (stereo not given) [ETHOFUMESATE] ?
0 (no)

Outcome? CCN(CC)C(=O)C(C)Oc1cccc2ccccc12 (stereo not given) [NAPROPAMIDE]
0 (no)

Give the logged outcome of this assay for the following compound: "CC(C)N(C(=O)COc1nnc(C(F)(F)F)s1)c1ccc(F)cc1"
1 (yes)

###

Target or test system: UniProt Q38860
Assay overview: Inhibition of Arbidopsis thaliana C-terminal His-tagged FAE1 expressed in Saccharomyces cerevisiae INVSc1 at 100 uM after 18 to 20 hr by GC/MS analysis
Activity calls are given as the source filed them. The rule behind the calls is not given here.
One label from this list, please: y = active, n = inactive

So what was the verdict on CCN(CC)C(=O)n1cnc(S(=O)(=O)c2c(C)cc(C)cc2C)n1 [CAFENSTROLE] in this test?
y

Hey, what did the test say about CCc1cccc(CC)c1N(COC)C(=O)CCl [ALACHLOR] ?
n

What was the test verdict on CCN(C(=O)n1nnn(-c2ccccc2Cl)c1=O)C1CCCCC1 [FENTRAZAMIDE] ?
n

For CCS(=O)(=O)Oc1ccc2c(c1)C(C)(C)CO2 [BENFURESATE] , what call appears in the results of this test?
n

###

Target or test system: 3-ketoacyl-CoA synthase 20 (Arabidopsis thaliana) (UniProt Q9FG87)
Sequence (whole entry): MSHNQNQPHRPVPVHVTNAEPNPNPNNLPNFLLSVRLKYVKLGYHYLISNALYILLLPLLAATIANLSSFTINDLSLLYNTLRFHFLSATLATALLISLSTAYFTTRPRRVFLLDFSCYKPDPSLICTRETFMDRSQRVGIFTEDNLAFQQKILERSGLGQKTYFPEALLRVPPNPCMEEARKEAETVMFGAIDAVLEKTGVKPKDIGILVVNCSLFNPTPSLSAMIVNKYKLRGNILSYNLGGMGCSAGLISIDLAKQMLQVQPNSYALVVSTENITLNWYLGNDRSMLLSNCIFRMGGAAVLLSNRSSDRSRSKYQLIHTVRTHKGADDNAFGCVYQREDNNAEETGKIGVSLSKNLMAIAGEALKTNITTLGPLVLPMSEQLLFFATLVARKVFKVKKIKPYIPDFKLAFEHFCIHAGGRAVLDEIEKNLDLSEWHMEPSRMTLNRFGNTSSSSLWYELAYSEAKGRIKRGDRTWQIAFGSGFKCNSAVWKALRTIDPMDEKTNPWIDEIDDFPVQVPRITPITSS
Assay overview: Inhibition of Arbidopsis thaliana C-terminal His-tagged At5g43760 expressed in Saccharomyces cerevisiae INVSc1 at 100 uM after 18 to 20 hr by GC/MS analysis
The source made the active and inactive calls. No cut-off for these calls is given here.
Measurement type: inhibition

>  <Compound>
CCN(CC)C(=O)n1cnc(S(=O)(=O)c2c(C)cc(C)cc2C)n1

>  <inhibition>
Active

$$$$
>  <Compound>
CN(C)C(=O)C(c1ccccc1)c1ccccc1 [DIPHENAMIDE]

>  <inhibition>
inactive

$$$$
>  <Compound>
CCOC1Oc2ccc(OS(C)(=O)=O)cc2C1(C)C (centres undefined) [ETHOFUMESATE]

>  <inhibition>
inactive

$$$$
>  <Compound>
CCc1cccc(CC)c1N(COC)C(=O)CCl

>  <inhibition>
Active

$$$$
>  <Compound>
CCN(C(=O)n1nnn(-c2ccccc2Cl)c1=O)C1CCCCC1 [FENTRAZAMIDE]

>  <inhibition>
Active

$$$$
>  <Compound>
CCN(CC)C(=O)C(C)Oc1cccc2ccccc12 (centres undefined) [NAPROPAMIDE]

>  <inhibition>
inactive

$$$$
>  <Compound>
CC(C)N(C(=O)SCC(Cl)=C(Cl)Cl)C(C)C [TRIALLATE]

>  <inhibition>
inactive

$$$$
>  <Compound>
CC(C)N(C(=O)COc1nnc(C(F)(F)F)s1)c1ccc(F)cc1

>  <inhibition>
Active

$$$$

Please examine the following record next.
Lookup: inhibition / 3-ketoacyl-CoA synthase 20 (Arabidopsis thaliana) (UniProt Q9FG87) / CCS(=O)(=O)Oc1ccc2c(c1)C(C)(C)CO2 [BENFURESATE]
inactive

###

Target or test system: 3-ketoacyl-CoA synthase 5 (Arabidopsis thaliana)
Assay overview: Inhibition of Arbidopsis thaliana C-terminal His-tagged CER60 expressed in Saccharomyces cerevisiae INVSc1 at 100 uM after 18 to 20 hr by GC/MS analysis
Activity calls are given as the source filed them. No cut-off for these calls is given here.
Reply using exactly one outcome from active, inactive

Could you kindly confirm the outcome this assay logged for CCN(CC)C(=O)C(C)Oc1cccc2ccccc12 (stereo not given) [NAPROPAMIDE] ?
inactive

For CCN(C(=O)n1nnn(-c2ccccc2Cl)c1=O)C1CCCCC1 [FENTRAZAMIDE] , what call appears in the results of this test?
inactive

For "CCN(CC)C(=O)n1cnc(S(=O)(=O)c2c(C)cc(C)cc2C)n1" , which call appears in the assay record?
active

Just curious, what result did "CCc1cccc(CC)c1N(COC)C(=O)CCl" get here?
active

Which outcome was assigned to CCS(=O)(=O)Oc1ccc2c(c1)C(C)(C)CO2 [BENFURESATE] in this test?
inactive

Values from ChEMBL document CHEMBL3045755
